measure name: melting point

# example entries with known answers
molecule	assay value
CCCc1c(C(=O)C(C)C)c2ccc(C(=O)OC)cc2n1Cc1c(Cl)cccc1Cl	130 to 132 °C
Cc1ccn2ncc(C(=O)Nc3cc(Cl)ccc3OC3CCC(O)CC3)c2n1 (centres undefined)	179 to 182 °C
COc1ccc(CCNc2nc(NCc3cc(OC)cc(OC)c3)c3cccnc3n2)cc1	88 to 89 °C

Then this molecule:
// melting point value for CCC(O)(CC)c1cccc(COc2ccc3c(-c4ccoc4)cc(C#N)cc3c2)n1 : 115 to 116 °C

* * *

measure name: melting point

# example entries with known answers
molecule	measure name	assay value
Nc1cc(Cl)c(Cl)c(Br)c1[N+](=O)[O-]	melting point	132 to 134 °C
O=C(Cc1ccc(Cl)c(Cl)c1)N1CCCC(N2CCCC2)C1 (stereo not drawn)	melting point	134 to 135 °C
C=C(C)C(=O)OCCOC(=O)C(=O)OCc1ccc(OCc2ccccc2)cc1	melting point	40 to 42 °C

// melting point value for Cc1ncn(-c2cc(F)ccc2CNC(=O)c2nc3n(c(=O)c2OCc2ccccc2)CCOC3(C)C)n1 : 203 °C

// melting point value for CCCCn1c(=O)c2cn(S(C)(=O)=O)nc2n(CCCC)c1=O : 103 to 104 °C

// melting point value for CC(C(N)=O)c1ccc2c(c1)C(=O)Cc1cc(C(F)(F)F)ccc1S2 (stereo not drawn) : 159 to 161 °C

// melting point value for CCOc1cc2ncc3c(N)nc(-c4cccnc4)cc3c2cc1OCC : 241 to 245 °C

// melting point value for O=C(O)c1cn(C2CC2)c2c(F)c(N3CCC(CNCCF)C3)c(F)cc2c1=O (stereo not drawn) : 134 to 138 °C

// melting point value for C[C@@H]1CN(c2c(C=O)cc(Br)c(F)c2F)C[C@H](C)O1 : 88.1 to 92 °C

// melting point value for COc1cccc2c(=O)c(CSC)cn(C)c12 : 143 to 145 °C

// melting point value for CC1Cc2c(c(Cl)cc(Cl)c2-n2nc(C(C)(C)C)oc2=O)O1 (stereo not drawn) : 112 to 115 °C

// melting point value for CC(C)Oc1c(C2=CC(C)(C)Oc3ccc(C#N)cc32)c(=O)c1=O : 169 to 170 °C

// melting point value for CCOC(=O)CCCCCC(=O)NCc1cccc2c1C(=O)N(C1CCC(=O)NC1=O)C2=O (stereo not drawn) : 82 to 84 °C

// melting point value for O=c1[nH]c2cc(C(F)(F)F)c(-n3ccnc3)cc2n2c(=S)[nH]nc12 : > 300 °C

// melting point value for O=C1C2=C(C=C3OCCC13)CCCO2 (stereo not drawn) : 101 °C

// melting point value for Cc1nc(C(C)(C)C)c(O)c(C(C)(C)C)n1 : 62 to 65 °C

// melting point value for C#CCCCCCCCCCCCCCCCCCCCCO : 64 to 70 °C

// melting point value for CS(=O)(=O)c1ccc(C(=O)N2CCNC2=Nc2c(Cl)cccc2Cl)cc1 : 240 to 244 °C

// melting point value for COC(=O)C[C@H](O)CC(=O)C=Cc1c(-c2ccc(F)cc2)c(-c2ccccc2)c(C(=O)Nc2ccccc2)n1C(C)C : 72 to 74 °C

// melting point value for CC1NC(=O)NN=C1c1ccc(NC(=O)CO)cc1 (stereo not drawn) : 246 to 248 °C

* * *

This section presents molecules with their documented melting point values.

# example entries with known answers
molecule	assay value
CCC(C(=O)N(C)C)n1cc(C)c(-c2ccc(Cl)cc2C)n1 (stereo not given)	89 to 92 °C
O=C(c1nc(NNNc2ccccc2)nc(C(=O)c2ccccc2O)n1)c1ccccc1O	170 °C
COc1cc(/C=C/C(=O)c2ccc(NS(C)(=O)=O)cc2)cc(-c2cccs2)c1OC	71 to 75 °C

// melting point value for Nc1n[nH]c2ccc(Br)cc12 : 165 to 175 °C

// melting point value for CC(=O)N(C)c1cccc(C(=O)C=CN(C)C)c1 : 146 to 148 °C

* * *

This section presents compounds with their documented melting point values.

# example entries with known answers
compound	melting point
CS(=O)(=O)c1ccc(-c2ccccc2Br)cc1	168 to 170 °C
CCOC(=O)CCCC1CCN(CCOC(c2ccccc2)c2ccc(F)cc2)CC1 (stereo unspecified)	119 to 120 °C
CC(=O)Nc1cnc(-c2ccccc2)[nH]c1=O	281 to 282 °C
Cc1nc(N)c2nc(C)n(CCNS(C)(=O)=O)c2c1C	> 250 °C
Nc1nc2ccccc2c2c1ncn2CCCCNC(=O)c1ccccc1Oc1ccccc1	93 to 94 °C

// melting point value for CCCc1c(OCCCC(=O)O)ccc(C(C)=O)c1O : 130 to 133 °C

// melting point value for N#CC1=Cc2ccccc2N(C(N)=O)c2ccccc21 : 143 to 145 °C

// melting point value for COC(=O)[C@H](CC(C)C)NC(=O)CNC(=O)[C@H](Cc1ccc(O)cc1)NC(=O)[C@H](CO)NC(=O)OCc1ccccc1 : 166 to 167 °C

// melting point value for CC(=O)OCC1OC(OC2C(COC(C)=O)OC(Oc3ccc([N+](=O)[O-])cc3)C(OC(C)=O)C2OC(C)=O)C(OC(C)=O)C(OC(C)=O)C1OC(C)=O (stereo unspecified) : 165 to 170 °C

// melting point value for O=C(N[C@H](Cc1ccc(C(F)(F)F)cc1)[C@@H](O)c1cccc(Oc2ccccc2)c1)c1ccc(F)c2ccccc12 (racemic) : 184 to 185 °C

// melting point value for CC(=O)c1cnn2c(-c3cccc(C(F)(F)F)c3)ccnc12 : 127 to 130 °C

// melting point value for O=c1oc2ccccc2s1 : 25.8 to 27 °C

// melting point value for O=S1(=O)c2ccccc2Oc2cc(O)ccc21 : 213 to 215 °C

* * *

measure name: melting point (°C)

compound	melting point, °C
Cc1ccc2c(c1C)OC(C(=O)O)C2 (stereo not given)	182
Cc1cc(C)n(C(=O)CNS(=O)(=O)c2ccc(C3CCCCC3)cc2)n1	138

* * *

This section presents compounds with their documented melting point values.

compound	melting point
CCCCSc1cc(C(=O)O)cc(N=Nc2cc(C(=O)O)cc(SCCCC)c2C(=O)c2ccccc2)c1C(=O)c1ccccc1	102 to 103 °C
COc1ccc(Cn2cnc3c2CC(C(=O)O)N(C(=O)C(c2ccccc2)c2ccccc2)C3)cc1C (stereo unspecified)	222 to 225 °C
COc1cc2c(Nc3cccc(Cl)c3F)ncnc2cc1OC1CCN(C(=O)C(C)(C)CO)CC1	111 to 115 °C
CN(c1cccc2cc(C3=NCC(CCNc4nnc[nH]4)S3)[nH]c12)S(=O)(=O)c1cccs1 (stereo unspecified)	195 °C
COC(=O)C(=O)c1cc[nH]c1	112 °C

// melting point value for Cc1cc(NC2=NCCN2)n(C(C)C)n1 : 173 to 175 °C

// melting point value for Cc1ccc(Cc2cnc(NCCCNc3ncc(Cl)cc3Cl)[nH]c2=O)cn1 : 147 to 148 °C

* * *

This section presents compounds with their documented melting point values.

# example entries with known answers
compound	melting point
Cc1ccc(S(=O)(=O)NCCOS(=O)(=O)c2ccc(C)cc2)cc1	89 to 90 °C
CCCC1=C(C(=O)OCC)C(c2ccccc2Cl)c2cn(C(=O)Oc3ccccc3)nc2N1 (stereo not given)	156 to 157 °C

// melting point value for C/C=C/C(=O)Nc1ccc2ncnc(Nc3cccc(Br)c3)c2c1 : 153 to 160 °C

// melting point value for O=C(Nc1ccc(-n2nc(C(F)(F)F)cc2C(F)(F)F)cc1)c1cc(Br)c(Br)s1 : 142 to 144 °C

// melting point value for Cc1nnc(-c2ccc3occc3c2)o1 : 159 to 160 °C

* * *

measure name: melting point

# example entries with known answers
compound	melting point
O=C(O)CCc1cc(OCc2cc(COc3ccc(Cl)cc3Cl)cc(OCc3ccccc3)c2)nn1-c1ccccc1	126 to 130 °C
Brc1ccc(-n2c(-c3ccccc3)ccc2-c2ccccc2)cc1	218 to 219 °C
CCCCCCCCNC(=O)ON=C(C1=CC(=O)C(C)(C2CCCCC2)O1)c1ccccc1 (stereo not drawn)	85 to 87 °C
CNc1nc(C(N)=O)c(-c2ccncc2)s1	212 to 213 °C
CC(=O)c1ccc2c(c1)CCC(=O)CO2	80 to 82 °C

// melting point value for O=C(NC1CC1)c1ccc(-c2ccc3nnn(Cc4ccc5ncccc5c4)c3n2)cc1F : 193 to 195 °C

// melting point value for CCCCCCCCCCCCCCCCOC[C@@H]1OCCC[C@H]1OP(=O)([O-])OCC[N+](C)(C)C (relative stereo) : 220 to 224 °C

// melting point value for COc1ccc(OC)c(S(=O)(=O)n2c(CCC(=O)O)cc3nc(Cl)ccc32)c1 : 204 to 209 °C
